- Test system: rodent lifetime carcinogenesis bioassay, tumor incidence TD50
- Test name: carcinogenic potency in animals, long-term in vivo studies, CPDB compilation (AID 1745844)
- Protocol conditions: mouse; strain B6C3F1; males; by gavage; site: liver; lesion: hepatocellular adenoma; dosed 90 weeks; study length 104 weeks
Property label: TD50

Looking up ClCC(Cl)CCl , I see its TD50 listed as 2.87 mg/kg/day

---

- System: rodent lifetime carcinogenesis bioassay, tumor incidence TD50
- Test name: carcinogenic potency in animals, long-term in vivo studies, CPDB compilation (AID 1745844)
- Protocol conditions: rat; strain F344/DuCrj; males; in feed; site: liver; lesion: hepatocellular adenoma; dosed 56 weeks; study length 56 weeks
Property label: TD50 (mg/kg/day)
Give bare numbers, in mg/kg/day.

The recorded TD50 with rodent lifetime carcinogenesis bioassay, tumor incidence TD50 for Cc1cnc2ccc3c(nc(N)n3C)c2n1 was 3.15
